ASSAY_EXPLANATION: Plasma pharmacokinetics in phase 1, open-label, fixed-sequence, 2-period drug interaction trial (MK-8591-005)
Format: in vivo, human
SETTINGS: human, plasma, oral, plasma islatravir; single 20 mg islatravir on day 8 with 50 mg dolutegravir + 300 mg TDF once daily days 1-11, period 2; N = 12; read-out: Cmax, GM (95%CI)
MEASURED_PROPERTY: Cmax (nM)
Report as a plain number; the unit nM is understood.

Cmax for C#C[C@]1(CO)O[C@@H](n2cnc3c(N)nc(F)nc32)C[C@@H]1O is 510

---

ASSAY_EXPLANATION: Plasma pharmacokinetics in phase 1, open-label, fixed-sequence, 2-period drug interaction trial (MK-8591-005)
Assay type: in vivo, human
SETTINGS: human, plasma, po, 20 mg, plasma islatravir; islatravir alone, single oral 20 mg, day 1 period 1; N = 12; read-out: Apparent terminal t1/2, AM (SD) (converted)
MEASURED_PROPERTY: half-life (h)
Express your answer in h, writing the number without its unit.

Entry under test: C#C[C@]1(CO)O[C@@H](n2cnc3c(N)nc(F)nc32)C[C@@H]1O . Its half-life was 57.2
